Molecular target: Fes (UniProt P07332)
Sequence (P07332 whole entry, looked up): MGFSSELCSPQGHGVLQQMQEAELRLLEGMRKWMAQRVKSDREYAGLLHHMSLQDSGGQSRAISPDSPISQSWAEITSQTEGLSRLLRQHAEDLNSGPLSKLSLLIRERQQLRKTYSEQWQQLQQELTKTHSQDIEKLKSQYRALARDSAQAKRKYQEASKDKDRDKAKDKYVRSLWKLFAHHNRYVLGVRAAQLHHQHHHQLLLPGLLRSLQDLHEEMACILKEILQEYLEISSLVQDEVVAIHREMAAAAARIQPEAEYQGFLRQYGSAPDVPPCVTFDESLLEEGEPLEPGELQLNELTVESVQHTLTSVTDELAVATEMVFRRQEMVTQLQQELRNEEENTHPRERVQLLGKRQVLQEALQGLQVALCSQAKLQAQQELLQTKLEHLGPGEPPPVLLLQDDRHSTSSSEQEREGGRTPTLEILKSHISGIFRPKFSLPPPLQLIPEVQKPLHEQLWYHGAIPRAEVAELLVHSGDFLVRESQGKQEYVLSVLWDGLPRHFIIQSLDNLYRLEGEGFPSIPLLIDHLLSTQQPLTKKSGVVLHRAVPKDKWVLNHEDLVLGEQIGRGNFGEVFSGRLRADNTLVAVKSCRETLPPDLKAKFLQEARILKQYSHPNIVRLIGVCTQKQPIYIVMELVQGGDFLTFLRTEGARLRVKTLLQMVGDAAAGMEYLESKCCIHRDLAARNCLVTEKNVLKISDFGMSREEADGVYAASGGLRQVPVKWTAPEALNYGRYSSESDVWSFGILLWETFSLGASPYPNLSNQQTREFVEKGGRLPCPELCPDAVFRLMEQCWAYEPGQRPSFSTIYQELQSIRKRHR
Experiment: phosphorylation enrichment, bacterial display (enrichment ratio); higher = better substrate or ligand; peptides without Tyr show the background
phosphorylation enrichment overview
A bare number is all that is needed in reply.

Here are 5 sequences together with their reported answers.
biopolymersequence="SRPTQYSSFSC [SPEM2_Y104]" assayendpoint="phosphorylation enrichment" resultnumber=0.986
biopolymersequence="DPNQQYYIAMD [TBX15_Y159_H156N]" assayendpoint="phosphorylation enrichment" resultnumber=0.992
biopolymersequence="FGISGYLVDSV [MAP2K3_Y214]" assayendpoint="phosphorylation enrichment" resultnumber=1.2
biopolymersequence="GKTQQYDCKWF [BCR_Y751_YF]" assayendpoint="phosphorylation enrichment" resultnumber=1.07
biopolymersequence="CLMILHRLKER [PTPRR_Y249_Y249H]" assayendpoint="phosphorylation enrichment" resultnumber=1.19

Problem: Item EPAVLYNLKER [MYH7_Y103_D107E] : provide phosphorylation enrichment
Solution: 0.854

Problem: Supply recorded phosphorylation enrichment for FEREQYADRTR [RBM4_Y355_A359T_YF] here.
Solution: 0.622

----------
Biological target: SHP2-C SH2;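 also: peptide library displayed on the E. coli surface as eCPX fusions, selected cells deep-sequenced, score is each peptide's frequency after selection divided by its frequency in the input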
Test: SH2 binding enrichment of the phosphorylated peptide, bacterial display (enrichment ratio); higher = better substrate or ligand; peptides without Tyr show the background
Property: SH2 binding enrichment; scope: individual sequences
Reply with the value as a number alone.

As a guide, the following entries are already answered.
biopolymersequence="PMFHSYVSLPF [PLXNA2_Y293_K289M]" assayendpoint="SH2 binding enrichment" resultnumber=1.4
biopolymersequence="VPDTNYTSDEE [STK33_Y439_A437T]" assayendpoint="SH2 binding enrichment" resultnumber=0.811
biopolymersequence="KDLPNYNWKSF [KISS1_Y112_N115K]" assayendpoint="SH2 binding enrichment" resultnumber=0.475
biopolymersequence="DHTVNYVLKCR [PLEKHG4_Y1068_R1064H]" assayendpoint="SH2 binding enrichment" resultnumber=0.63
biopolymersequence="MSRDVYSTDCY [NTRK2_Y702_Y706C]" assayendpoint="SH2 binding enrichment" resultnumber=0.719

Problem: Identify measured SH2 binding enrichment associated with CSRCFYQLTKL [AR_Y858_R856C]
Solution: 1.52

Problem: For the sequence ILGLEYSLRLP [HELZ2_Y1304_V1308L] , report SH2 binding enrichment.
Solution: 0.648

----------
Listed below: phosphorylation enrichment values for each entry.
Biological target: FGFR3 (UniProt P22607)
Sequence (P22607 whole entry, looked up): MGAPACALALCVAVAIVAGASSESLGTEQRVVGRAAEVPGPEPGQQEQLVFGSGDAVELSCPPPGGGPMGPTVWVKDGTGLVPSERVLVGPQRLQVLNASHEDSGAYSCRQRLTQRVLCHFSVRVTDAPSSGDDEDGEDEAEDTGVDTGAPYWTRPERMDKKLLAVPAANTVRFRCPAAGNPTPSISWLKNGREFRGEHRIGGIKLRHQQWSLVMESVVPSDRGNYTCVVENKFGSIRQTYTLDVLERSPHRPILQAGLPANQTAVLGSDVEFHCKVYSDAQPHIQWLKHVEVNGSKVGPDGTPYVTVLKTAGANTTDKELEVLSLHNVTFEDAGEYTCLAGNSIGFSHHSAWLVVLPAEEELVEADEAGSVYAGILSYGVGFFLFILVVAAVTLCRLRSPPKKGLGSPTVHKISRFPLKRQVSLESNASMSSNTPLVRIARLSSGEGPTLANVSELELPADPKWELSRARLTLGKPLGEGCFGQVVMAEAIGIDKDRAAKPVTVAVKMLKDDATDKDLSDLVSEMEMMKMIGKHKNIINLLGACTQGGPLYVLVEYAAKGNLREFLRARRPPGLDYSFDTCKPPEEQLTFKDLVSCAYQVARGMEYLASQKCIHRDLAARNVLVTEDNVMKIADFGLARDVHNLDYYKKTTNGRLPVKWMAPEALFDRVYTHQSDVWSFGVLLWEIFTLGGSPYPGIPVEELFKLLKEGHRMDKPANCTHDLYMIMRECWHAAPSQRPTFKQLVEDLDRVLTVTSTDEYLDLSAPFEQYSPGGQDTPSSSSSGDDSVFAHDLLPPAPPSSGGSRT
Assay: phosphorylation enrichment, bacterial display (enrichment ratio); higher = better substrate or ligand; peptides without Tyr show the background

Previously resolved entries follow.
biopolymersequence="TFGQVYKGRHV [TNIK_Y40_YF]" assayendpoint="phosphorylation enrichment" result=0.368
biopolymersequence="IFGEEYEEQPR [ZMYM2_Y1033_V1028I]" assayendpoint="phosphorylation enrichment" result=0.849
biopolymersequence="RALLNYIASKY [GSTA3_Y74_I71L]" assayendpoint="phosphorylation enrichment" result=0.798

Problem: Give a short answer stating reported phosphorylation enrichment for HFVFFYSFLLK [PTEN_Y178_R173H_YF] .
Solution: 1.14

Problem: Could you please provide reported phosphorylation enrichment for VEFAKYGSLRG [RET_Y809_YF] ? Thanks!
Solution: 0.469

Problem: Entry LEITWYPFDME [RIPOR2_Y316_V320M] needs its phosphorylation enrichment filled in; supply it.
Solution: 1.48

Problem: Item LVSCTYQLARR [FGFR2_Y608_G613R] : provide phosphorylation enrichment
Solution: 0.793

Problem: Retrieve phosphorylation enrichment measured for VTSLKYSTSPY [BRIP1_Y916] and print it.
Solution: 0.467

Problem: Give reported phosphorylation enrichment value for YPPTHYIRRMP [SLC4A11_Y820_V824M]
Solution: 0.493

Problem: Given the sequence FLRTGYSIPFG [TGM1_Y370_V372I_YF] , write its reported phosphorylation enrichment.
Solution: 0.769

Problem: Provide one value: measured phosphorylation enrichment of NVFGNYNQQPS [HNRNPA2B1_Y306_D302V]
Solution: 0.471

Problem: Report phosphorylation enrichment for MPPHICAITDT [MYH9_Y151_Y151C]
Solution: 0.685

Problem: Specify reported phosphorylation enrichment for the sequence shown: SQETFYRVSNM [ABCD1_Y181_Q178E_YF]
Solution: 0.473

----------
As shown below, each of these sequences has a reported phosphorylation enrichment value.
System: c-Abl (mouse)
Test: phosphorylation enrichment, bacterial display (enrichment ratio); higher = better substrate or ligand; peptides without Tyr show the background
Returns: the value as a bare number; no unit string appended.

Problem: Query phosphorylation enrichment for GHPYAYDWISI [BEST1_Y227_L224P]
Solution: 0.661

Problem: Name the recorded phosphorylation enrichment of the item QNAGDYYDLYG [PTPN11_Y62_T59A] in your answer.
Solution: 1.04

Problem: Read off the recorded phosphorylation enrichment for RLCQDYDIIGP [ANK1_Y1073_T1075I]
Solution: 0.663

Problem: Return phosphorylation enrichment for the following sequence: DGDTRYSTFSE [TKTL1_Y318]
Solution: 0.764

Problem: State its phosphorylation enrichment: TVLWQYTGTRP [UGT1A1_Y337_R336Q]
Solution: 0.436

----------
System: c-Src
Assay: phosphorylation enrichment, bacterial display (enrichment ratio); higher = better substrate or ligand; peptides without Tyr show the background
Overview of reported phosphorylation enrichment across a group of sequences:
Reply briefly: the number, and no unit.

Consider the following illustrative entries.
biopolymersequence="NNIDYYKKTTN [FGFR2_Y657]" assayendpoint="phosphorylation enrichment" resultnumber=0.492
biopolymersequence="EEGNPYFSSTR [MCCC2_Y520_A524T_YF]" assayendpoint="phosphorylation enrichment" resultnumber=1.14
biopolymersequence="CSEETYRLMLQ [RET_Y981_M980T]" assayendpoint="phosphorylation enrichment" resultnumber=0.627
biopolymersequence="FFIMMYTGSNV [DNAJC13_Y1131]" assayendpoint="phosphorylation enrichment" resultnumber=0.4
biopolymersequence="PLFKICVAELI [MRPL28_Y230_Y230C]" assayendpoint="phosphorylation enrichment" resultnumber=0.394
biopolymersequence="EVVGRYSLHNA [MLH1_Y183_V185L]" assayendpoint="phosphorylation enrichment" resultnumber=0.364
biopolymersequence="TVLWQYTGTRP [UGT1A1_Y337_R336Q]" assayendpoint="phosphorylation enrichment" resultnumber=0.22
biopolymersequence="IATAIYSGDKI [UGGT2_Y823]" assayendpoint="phosphorylation enrichment" resultnumber=2.69
biopolymersequence="PESCLYKESWI [IQGAP2_Y630_L635I]" assayendpoint="phosphorylation enrichment" resultnumber=0.825
biopolymersequence="GHMYAYDWISI [BEST1_Y227_L224M]" assayendpoint="phosphorylation enrichment" resultnumber=1.82

Problem: Give me measured phosphorylation enrichment, please, for this sequence: SYPREYGSQEG [RBM10_Y48]
Solution: 0.413

Problem: Specify reported phosphorylation enrichment for the sequence shown: RFLRGYQQDAY [HLA-A_Y137_R138Q]
Solution: 0.715

Problem: Return the recorded phosphorylation enrichment value; entry: INASGYRIGPA [ACSM1_Y477]
Solution: 0.433

----------
Each item that follows carries a reported phosphorylation enrichment.
Target: FGFR3 (UniProt P22607)
Experiment: phosphorylation enrichment, bacterial display (enrichment ratio); higher = better substrate or ligand; peptides without Tyr show the background
Answer with the value's number alone.

biopolymersequence="SLNEGYARDFD [FBP1_Y216]" assaytarget="FGFR3 (UniProt P22607)" assayendpoint="phosphorylation enrichment" resultnumber=0.617
biopolymersequence="DVMDLYKTLRG [NR3C1_Y30_F29L]" assaytarget="FGFR3 (UniProt P22607)" assayendpoint="phosphorylation enrichment" resultnumber=0.861
biopolymersequence="YTDPYYDYEIE [ZC3H18_Y372_A368T]" assaytarget="FGFR3 (UniProt P22607)" assayendpoint="phosphorylation enrichment" resultnumber=7.56
biopolymersequence="CTTIHYNYMCT [TP53_Y234_N239T]" assaytarget="FGFR3 (UniProt P22607)" assayendpoint="phosphorylation enrichment" resultnumber=0.817
biopolymersequence="CIILLYIFLKN [STXBP1_Y411_R406C]" assaytarget="FGFR3 (UniProt P22607)" assayendpoint="phosphorylation enrichment" resultnumber=0.531
biopolymersequence="DPNQQYYIAMD [TBX15_Y159_H156N]" assaytarget="FGFR3 (UniProt P22607)" assayendpoint="phosphorylation enrichment" resultnumber=2.95
biopolymersequence="VPVNGYQPVPA [ROR2_Y824]" assaytarget="FGFR3 (UniProt P22607)" assayendpoint="phosphorylation enrichment" resultnumber=0.517
biopolymersequence="YEKFLYFLPAS [DYNC2H1_Y346_H341Y]" assaytarget="FGFR3 (UniProt P22607)" assayendpoint="phosphorylation enrichment" resultnumber=0.91

Problem: Give reported phosphorylation enrichment value for QNTADYFDLFG [PTPN11_Y62_G60A_YF]
Solution: 16.9

Problem: Look up and report measured phosphorylation enrichment for this entry: VPDTNYTSDEE [STK33_Y439_A437T]
Solution: 0.708

Problem: Respond only with phosphorylation enrichment recorded for HLTNQFMQRVA [PABPC4_Y382_Y382F]
Solution: 0.631

Problem: Look up and report measured phosphorylation enrichment for this entry: PQGVGYPQQQQ [EP300_Y2219_P2221Q]
Solution: 0.604

Problem: Report phosphorylation enrichment for TLGPFYPSLLF [CRYAA_Y18_R21L]
Solution: 1.09

Problem: State its phosphorylation enrichment for this sequence: CTIIHYNYMCN [TP53_Y234_T231I]
Solution: 0.798

Problem: Retrieve phosphorylation enrichment measured for TFEPNYGTVKR [RAPGEF6_Y1447_Q1452R_YF] and print it.
Solution: 0.45

Problem: Complete the entry with phosphorylation enrichment for FQLPFYNTVPS [BMPR1A_Y458_M460T_YF]
Solution: 0.699

Problem: Check the records and state phosphorylation enrichment for HESEIYGKVCF [CSRP3_Y57_C58G_YF]
Solution: 0.939

Problem: Please give measured phosphorylation enrichment of the following entry: TNRSVYFKPSL [NUP153_Y382]
Solution: 0.447

Problem: Report measured phosphorylation enrichment; entry is MSRDVYSTDCY [NTRK2_Y702_Y706C]
Solution: 0.766

Problem: Tell me its phosphorylation enrichment given GGSSPYSRRLA [CDK13_Y351_P356A] as the entry.
Solution: 0.395

Problem: In one line, give reported phosphorylation enrichment of the entry ADRTRYSAFGG [RBM4_Y361_A359T] .
Solution: 0.44

Problem: Indicate its recorded phosphorylation enrichment; the sequence in question is FGGTVYHSPVS [PRC1_Y511]
Solution: 0.525

Problem: Please report the measured phosphorylation enrichment for EVVGRYSLHNA [MLH1_Y183_V185L]
Solution: 0.424

Problem: Quick one: give measured phosphorylation enrichment for GDYYRYLAEVA [YWHAG_Y133]
Solution: 9.01

Problem: Check the records and state phosphorylation enrichment for MHLRQYELLGG [GNAS_Y391]
Solution: 0.705

Problem: # return recorded phosphorylation enrichment for entry FRDALYKSMVD [PHEX_Y250_F252S_YF]
Solution: 0.642

Problem: Specify reported phosphorylation enrichment for the sequence shown: RAIGFYSATSK [FAM120A_Y328_YF]
Solution: 0.805

Problem: Tell me its phosphorylation enrichment given RSSPVYVGRVV [TGM2_Y219] as the entry.
Solution: 0.82

Problem: Specify phosphorylation enrichment for LKVKAYRFSIS [LCT_Y974] and stop.
Solution: 0.835

Problem: Supply measured phosphorylation enrichment of GHPYAYDWISI [BEST1_Y227_L224P] in your reply.
Solution: 6.75
